Test system: CEM cells
Experiment: CEM cell assay, intrinsic toxicity of test compound (MTT, no virus)
Type: cell-based
Conditions: CEM cells without virus, reduces cellular viability by 50%
Documented Cell Toxicity (TD50) across a set of compounds

C[C@@H](C(=O)N[C@@H](Cc1ccccc1)[C@H](O)CN1C[C@H]2CCCC[C@H]2C[C@H]1C(=O)NC(C)(C)C)C(C)(C)C(=O)O    50,000 nM
C[C@H](CS(C)(=O)=O)C(=O)N[C@@H](Cc1ccccc1)[C@H](O)CN1C[C@H]2CCCC[C@H]2C[C@H]1C(=O)NC(C)(C)C    58,000 nM
COc1ccc(COC(=O)NC[C@@H](C)C(=O)N[C@@H](Cc2ccccc2)[C@H](O)CN2C[C@H]3CCCC[C@H]3C[C@H]2C(=O)NC(C)(C)C)cc1    2,000 nM

Q. Any idea what Cell Toxicity (TD50) was measured for `CC(C)(C)NC(=O)[C@@H]1C[C@@H]2CCCC[C@@H]2CN1C[C@@H](O)[C@H](Cc1ccccc1)NC(=O)C[C@H](NC(=O)c1ccc2ccccc2n1)C(N)=O` ?
A. 5,000 nM

Q. Same question, `C[C@@H](C(=O)N[C@@H](Cc1ccccc1)[C@H](O)CN1C[C@H]2CCCC[C@H]2C[C@H]1C(=O)NC(C)(C)C)C(C)(C)CN` this time
A. 59,000 nM

====

These records show pIC50 for HIV protease (Human immunodeficiency virus type 1 group M subtype B, UniProt P04585).
Here pIC50 is given on a logarithmic scale as minus log10 of the concentration in mol/L.

// worked examples, pIC50 included
CC(C)(C)NC(=O)[C@@H]1C[C@@H]2CCCC[C@@H]2CN1C[C@@H](O)[C@H](Cc1ccccc1)NC(=O)C[C@H](NC(=O)c1ccc2ccccc2n1)C(N)=O    8.05
C[C@@H](C(=O)N[C@@H](Cc1ccccc1)[C@H](O)CN1C[C@H]2CCCC[C@H]2C[C@H]1C(=O)NC(C)(C)C)C(C)(C)CN    8.05
C[C@@H](C(=O)N[C@@H](Cc1ccccc1)[C@H](O)CN1C[C@H]2CCCC[C@H]2C[C@H]1C(=O)NC(C)(C)C)C(C)(C)C(=O)O    7.64
COc1ccc(COC(=O)NC[C@@H](C)C(=O)N[C@@H](Cc2ccccc2)[C@H](O)CN2C[C@H]3CCCC[C@H]3C[C@H]2C(=O)NC(C)(C)C)cc1    8.70

Q. Param readout = pIC50; param system = HIV protease (Human immunodeficiency virus type 1 group M subtype B, UniProt P04585); param query = `C[C@H](CS(C)(=O)=O)C(=O)N[C@@H](Cc1ccccc1)[C@H](O)CN1C[C@H]2CCCC[C@H]2C[C@H]1C(=O)NC(C)(C)C` ; response: value
A. 8.15
